Source listed as patent US5686458A.

Listed below: Effect ratio values for each entry.
- system name: Proton Pump (H^+ /K^+ ATPase) (Oryctolagus cuniculus)
- Construct: The microsomes thus obtained were used as an enzyme source of the in vitro enzyme reaction study of proton pump; from tissue; host or cells: rabbit stomach, mucosal scrapings, microsomes (180,000 g pellet)
- Sequence (P27112 whole entry): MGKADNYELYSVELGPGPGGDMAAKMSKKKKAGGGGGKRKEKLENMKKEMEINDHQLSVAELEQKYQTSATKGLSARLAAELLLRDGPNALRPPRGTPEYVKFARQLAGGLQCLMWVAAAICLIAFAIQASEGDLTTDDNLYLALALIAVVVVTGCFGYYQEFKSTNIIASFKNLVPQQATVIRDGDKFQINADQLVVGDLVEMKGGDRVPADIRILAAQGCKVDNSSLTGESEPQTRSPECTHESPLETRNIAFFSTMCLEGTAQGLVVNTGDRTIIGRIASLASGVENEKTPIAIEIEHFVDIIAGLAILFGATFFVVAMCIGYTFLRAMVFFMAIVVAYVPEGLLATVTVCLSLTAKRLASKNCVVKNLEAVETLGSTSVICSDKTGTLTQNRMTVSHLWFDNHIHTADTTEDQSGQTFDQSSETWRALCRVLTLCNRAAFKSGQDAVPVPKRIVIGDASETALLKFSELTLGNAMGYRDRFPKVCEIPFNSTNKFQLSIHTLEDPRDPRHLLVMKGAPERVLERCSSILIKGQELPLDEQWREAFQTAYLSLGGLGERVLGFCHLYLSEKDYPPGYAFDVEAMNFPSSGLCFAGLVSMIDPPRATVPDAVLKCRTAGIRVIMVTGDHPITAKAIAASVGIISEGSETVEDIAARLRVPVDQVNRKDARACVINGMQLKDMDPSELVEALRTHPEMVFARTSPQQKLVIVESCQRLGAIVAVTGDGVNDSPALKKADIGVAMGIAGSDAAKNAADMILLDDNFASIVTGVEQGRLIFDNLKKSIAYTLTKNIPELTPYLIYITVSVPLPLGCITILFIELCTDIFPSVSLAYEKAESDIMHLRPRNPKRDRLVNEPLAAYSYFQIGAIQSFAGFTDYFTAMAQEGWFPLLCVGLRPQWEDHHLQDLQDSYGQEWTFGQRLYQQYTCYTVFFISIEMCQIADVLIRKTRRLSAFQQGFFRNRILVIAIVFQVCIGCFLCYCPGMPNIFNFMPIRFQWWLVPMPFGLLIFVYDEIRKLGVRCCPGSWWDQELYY
- Sequence (P18597 whole entry partner): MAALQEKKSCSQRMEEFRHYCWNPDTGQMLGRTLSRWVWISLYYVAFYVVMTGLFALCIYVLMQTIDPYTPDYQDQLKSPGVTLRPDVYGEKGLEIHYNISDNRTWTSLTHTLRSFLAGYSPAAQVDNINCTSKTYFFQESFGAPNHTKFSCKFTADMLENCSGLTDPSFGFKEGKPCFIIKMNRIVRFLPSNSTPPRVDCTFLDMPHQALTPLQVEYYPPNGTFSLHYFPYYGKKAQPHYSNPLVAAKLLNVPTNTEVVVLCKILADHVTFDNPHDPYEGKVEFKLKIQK
- procedure details: Inhibition of Proton Pump (H+/K+ ATPase) Activity, in vitro enzyme reaction (Experiment 1)
- Assay type: biochemical, New Zealand white rabbit
- condition: IC50 of Omeprazole / IC50 of test compound
- Description: A New Zealand white rabbit was killed by blowing its head and the stomach was taken out. The contents of the stomach were removed and the stomach walls were washed with was saline. The inner wall of the stomach was scratched out with a slide glass and the cells thus obtained were homogenized in 0.25M sucrose buffer by means of a Teflon-glass homogenizer. […] The inhibitory effects of proton pump activity by the compounds of the present invention were measured by the in vitro enzyme reaction study. […]

Task: Name the recorded Effect ratio for COc1cccc2c(N3CCc4cc(C)ccc4C3C)nc(Nc3ccc(F)cc3)nc12.Cl (stereo not shown) .
Output: ~ 0.64

Task: Now give it for COc1cccc2c(N3CCc4ccccc4C3)nc(N(C)c3ccc(F)cc3)nc12.Cl too.
Output: > 0.58

Task: Next molecule up: Cc1cc(F)ccc1Nc1nc(N2CCc3ccccc3C2C)c2cccc(OCCO)c2n1 (stereo not shown)
Output: ~ 0.60

Task: Try CC1c2ccccc2CCN1c1nc(N(C)c2ccccc2)nc2ccccc12.Cl (stereo not shown) next.
Output: ~ 1.29

Task: Would you kindly repeat that for COc1cccc2c(N3CCc4ccccc4C3CF)nc(Nc3ccc(F)cc3C)nc12.Cl (stereo not shown) ?
Output: ~ 0.97

Task: Input COc1cccc2c(N3CCc4ccccc4C3CF)nc(Nc3ccc(F)cc3)nc12.Cl (stereo not shown)
Output: < 0.97

Task: Quick one: COc1cccc2c(N3CCc4ccccc4C3(C)C)nc(Nc3ccc(F)cc3)nc12.Cl
Output: 1.22

Task: Next entry: COc1cccc2c(N3CCc4ccccc4[C@@H]3C)nc(Nc3ccc(F)cc3C)nc12.Cl
Output: 1.28

Task: Same again, this time with COc1cccc2c(N3CCc4ccccc4C3C)nc(Nc3ccc(F)cc3)nc12.Cl (stereo not shown)
Output: 1.22

Task: And the next one, COc1cccc2c(N3CC(C)c4ccccc4C3C)nc(Nc3ccc(F)cc3)nc12.Cl (stereo not shown) ?
Output: < 0.60

Task: Query COc1cccc2c(N3CCc4cccc5c4C3CC5)nc(Nc3ccc(F)cc3C)nc12.Cl (stereo not shown) next
Output: 1.77

Task: Same read-out for COc1cccc2c(N3CC(C)c4ccccc4C3C)nc(Nc3ccc(F)cc3C)nc12.Cl (stereo not shown) ?
Output: 1.04

Task: Next: COc1cccc2c(N3Cc4ccccc4CC3C)nc(Nc3ccc(F)cc3)nc12.Cl (stereo not shown)
Output: ~ 0.25
